Molecular target: PPARG/RXRA LBD heterodimer (Homo sapiens, UniProt P37231)
Construct: His-TEV-Q203-Y477; Uniprot ID P37231-2; made in house; host or cells: E. coli
Test: PPARγ-MED1 blockade assay (TR-FRET, biotinylated MED1 LxxLL peptide)
Assay type: binding
Conditions: 3 h; maximal extent; GW9662 defined as 100%, DMSO 0%; read-out: % MED1 blockade relative to GW9662
What Emax was measured for each of the following?

Here's what some known entries look like.
[[record]]
compound = "Cc1ccc(-c2c(F)cc3[nH]c(-c4cc(C#N)ccc4S(C)(=O)=O)cc(=O)c3c2F)cn1"
val = "> 100%"

[[record]]
compound = "CC(C)S(=O)(=O)c1ccc(C#N)cc1-c1cc(=O)c2c(F)cc(F)cc2[nH]1"
val = "< 100%"

[[record]]
compound = "CS(=N)(=O)c1ccc(C#N)cc1-c1cc(=O)c2c(F)cc(F)cc2[nH]1 (stereo not shown)"
val = "> 100%"


Please look at the following compound next.
The reported Emax of the compound CS(=O)(=O)c1ccc(C#N)cc1-c1cc(=O)c2c(F)cc(F)cc2[nH]1 was > 100%

====

Biological target: PPARG/RXRA LBD heterodimer (Homo sapiens, UniProt P37231)
Construct: His-TEV-Q203-Y477: Uniprot ID P37231-2; made in house; host or cells: E. coli
Assay: PPARγ-NCOR1 recruitment assay (TR-FRET, biotinylated NCOR1 ID2 peptide)
Assay type: binding
Conditions: 3 h; maximal extent; T0070907 defined as 100%, DMSO 0%; read-out: % NCOR recruitment relative to T907
Sequence (O75376 2251-2273 partner, one chain of several): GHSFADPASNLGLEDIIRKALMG
What Emax was measured for each of the following?

[[record]]
compound = "CN1CCN(c2c(F)cc3[nH]c(-c4cc(C#N)ccc4S(C)(=O)=O)cc(=O)c3c2F)CC1"
readout = "Emax"
val = "> 100%"

[[record]]
compound = "Cn1cc(-c2c(F)cc3[nH]c(-c4cc(C#N)ccc4S(C)(=O)=O)cc(=O)c3c2F)cn1"
readout = "Emax"
val = "> 100%"

[[record]]
compound = "CC(C)CS(=O)(=O)c1ccc(C#N)cc1-c1cc(=O)c2c(F)cc(F)cc2[nH]1"
readout = "Emax"
val = "< 100%"

[[record]]
compound = "C[S+]([O-])c1ccc(C#N)cc1-c1cc(=O)c2c(F)cc(F)cc2[nH]1 (stereo not drawn)"
readout = "Emax"
val = "> 100%"

[[record]]
compound = "CCS(=O)(=O)c1ccc(C#N)cc1-c1cc(=O)c2c(F)cc(F)cc2[nH]1"
readout = "Emax"
val = "> 100%"


Please look at the following compound next.
The reported Emax of the compound CC(C)S(=O)(=O)c1ccc(C#N)cc1-c1cc(=O)c2c(F)cc(F)cc2[nH]1 was < 100%

====

Target: PPARG/RXRA LBD heterodimer (Homo sapiens, UniProt P37231)
Construct: His-TEV-Q203-Y477; Uniprot ID P37231-2; made in house; host or cells: E. coli
Sequence (P37231 203-477 isoform P37231-2): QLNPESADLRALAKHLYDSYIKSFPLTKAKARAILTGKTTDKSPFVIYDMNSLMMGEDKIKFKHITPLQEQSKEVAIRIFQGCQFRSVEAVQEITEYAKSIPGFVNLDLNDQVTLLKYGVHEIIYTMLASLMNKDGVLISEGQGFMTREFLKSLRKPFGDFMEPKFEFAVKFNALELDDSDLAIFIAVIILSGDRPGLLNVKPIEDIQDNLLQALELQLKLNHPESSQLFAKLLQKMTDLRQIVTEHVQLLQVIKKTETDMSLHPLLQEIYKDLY
Sequence (P19793 228-462 partner limits assumed): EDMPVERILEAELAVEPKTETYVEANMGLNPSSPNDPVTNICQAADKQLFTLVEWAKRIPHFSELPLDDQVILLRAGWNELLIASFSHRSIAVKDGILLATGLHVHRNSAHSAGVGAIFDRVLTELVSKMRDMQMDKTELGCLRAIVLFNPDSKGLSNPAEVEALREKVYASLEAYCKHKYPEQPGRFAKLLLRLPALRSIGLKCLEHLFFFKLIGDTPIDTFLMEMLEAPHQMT
Assay: PPARγ-MED1 blockade assay (TR-FRET, biotinylated MED1 LxxLL peptide)
Format: binding
Settings: TR-FRET, 80 nM Rosiglitazone, 3 hours incubation
pEC50: −log10 of the molar value.
What pEC50 was measured for each of the following?

[[record]]
mol_smiles = "CC(C)CS(=O)(=O)c1ccc(C#N)cc1-c1cc(=O)c2c(F)cc(F)cc2[nH]1"
val = "5.00 to 6.00"


Need pEC50 for each of these compounds.
1. Cc1ccc(-c2c(F)cc3[nH]c(-c4cc(C#N)ccc4S(C)(=O)=O)cc(=O)c3c2F)cn1
2. CS(=O)(=O)c1ccc(C#N)cc1-c1cc(=O)c2c(F)cc(F)cc2[nH]1

1: 7.00 to 8.00; 2: 6.00 to 7.00
